Could you please report measured melting point for the items listed next?

Look up melting point: COc1cccc(C(=O)NNC(=O)c2cc(-c3ccc(Br)cc3)n[nH]2)c1
251 to 253 °C

So what's the measured melting point for this one? Cc1ccc(C(=O)NNC(=O)c2cc(-c3ccc(Br)cc3)n[nH]2)cc1
270 to 272 °C

Name the recorded melting point for O=C(NNC(=O)c1cc(-c2ccc(Br)cc2)n[nH]1)c1ccccc1 .
288 to 290 °C

Which value of melting point has been reported for O=C(NNC(=O)c1cc(-c2ccc(Br)cc2)n[nH]1)c1ccc(Br)cc1 in the records?
297 to 298 °C

Which melting point is listed for O=C(NNC(=O)c1cc(-c2ccc(Br)cc2)n[nH]1)c1cccc(F)c1 ?
278 to 280 °C

Which measured melting point value corresponds to Cc1ccccc1C(=O)NNC(=O)c1cc(-c2ccc(Br)cc2)n[nH]1 ?
292 to 294 °C

Which melting point is listed for O=C(NNC(=O)c1ccccc1F)c1cc(-c2ccc(Br)cc2)n[nH]1 ?
297 to 298 °C

melting point lookup needed for COc1ccccc1C(=O)NNC(=O)c1cc(-c2ccc(Br)cc2)n[nH]1 , thanks.
287 to 290 °C

If you can, please state the reported melting point value of O=C(NNC(=O)c1cc(-c2ccccc2Br)n[nH]1)c1ccc(Br)cc1 .
281 to 283 °C

I am curious: what melting point value has been reported for COc1ccc(C(=O)NNC(=O)c2cc(-c3ccc(Br)cc3)n[nH]2)cc1 ?
281 to 282 °C

Fill blank: measured melting point of the molecule O=C(NNC(=O)c1ccccc1Cl)c1cc(-c2ccc(Br)cc2)n[nH]1 is ____.
280 to 281 °C

// melting point lookup, key: O=C(NNC(=O)c1cc(-c2ccc(Br)cc2)n[nH]1)c1cccc([N+](=O)[O-])c1
275 to 276 °C

Fill in the blank: the reported melting point of O=C(NNC(=O)c1ccccc1[N+](=O)[O-])c1cc(-c2ccc(Br)cc2)n[nH]1 is ____.
266 to 267 °C

Return reported melting point; argument: O=C(NNC(=O)c1cc(-c2ccc(Br)cc2)n[nH]1)c1ccc(Cl)cc1
280 to 283 °C

Need melting point of O=C(NNC(=O)c1cc(-c2ccc(Br)cc2)n[nH]1)c1ccc(F)cc1 , thanks.
284 to 287 °C

Item under review: O=C(NNC(=O)c1cc(-c2ccc(Br)cc2)n[nH]1)c1ccc([N+](=O)[O-])cc1 . Reported melting point?
255 to 257 °C

Name the reported melting point value associated with the molecule O=C(NNC(=O)c1cc(-c2cccc(Br)c2)n[nH]1)c1ccc(Br)cc1
229 to 231 °C

Which melting point is reported for this molecule? Cc1cccc(C(=O)NNC(=O)c2cc(-c3ccc(Br)cc3)n[nH]2)c1
287 to 288 °C

Fill in: melting point of O=C(NNC(=O)c1cc(-c2ccc(Br)cc2)n[nH]1)c1cccc(Cl)c1 is ___
246 to 248 °C

---

Parameter IC50, tested on B. subtilis DNA gyrase (Bacillus subtilis, UniProt P05652), listed per item.
Sequence (P05652 whole entry): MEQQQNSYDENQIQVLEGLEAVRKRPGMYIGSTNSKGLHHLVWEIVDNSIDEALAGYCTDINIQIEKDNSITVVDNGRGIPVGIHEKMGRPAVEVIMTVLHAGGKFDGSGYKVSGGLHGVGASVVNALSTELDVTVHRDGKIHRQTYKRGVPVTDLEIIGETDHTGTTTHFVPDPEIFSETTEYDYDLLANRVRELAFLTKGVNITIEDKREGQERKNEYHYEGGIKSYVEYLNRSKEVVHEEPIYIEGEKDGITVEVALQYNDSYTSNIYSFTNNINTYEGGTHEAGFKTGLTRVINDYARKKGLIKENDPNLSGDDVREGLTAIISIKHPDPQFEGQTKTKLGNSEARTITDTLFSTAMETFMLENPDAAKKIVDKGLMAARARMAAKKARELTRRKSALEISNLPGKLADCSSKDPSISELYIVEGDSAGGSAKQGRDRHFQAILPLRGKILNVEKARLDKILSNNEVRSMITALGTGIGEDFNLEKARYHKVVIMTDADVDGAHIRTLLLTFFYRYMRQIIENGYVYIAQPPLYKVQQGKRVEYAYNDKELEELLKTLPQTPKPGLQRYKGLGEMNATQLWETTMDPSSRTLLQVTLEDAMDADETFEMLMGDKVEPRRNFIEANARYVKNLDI
Sequence (P05653 whole entry, further chain): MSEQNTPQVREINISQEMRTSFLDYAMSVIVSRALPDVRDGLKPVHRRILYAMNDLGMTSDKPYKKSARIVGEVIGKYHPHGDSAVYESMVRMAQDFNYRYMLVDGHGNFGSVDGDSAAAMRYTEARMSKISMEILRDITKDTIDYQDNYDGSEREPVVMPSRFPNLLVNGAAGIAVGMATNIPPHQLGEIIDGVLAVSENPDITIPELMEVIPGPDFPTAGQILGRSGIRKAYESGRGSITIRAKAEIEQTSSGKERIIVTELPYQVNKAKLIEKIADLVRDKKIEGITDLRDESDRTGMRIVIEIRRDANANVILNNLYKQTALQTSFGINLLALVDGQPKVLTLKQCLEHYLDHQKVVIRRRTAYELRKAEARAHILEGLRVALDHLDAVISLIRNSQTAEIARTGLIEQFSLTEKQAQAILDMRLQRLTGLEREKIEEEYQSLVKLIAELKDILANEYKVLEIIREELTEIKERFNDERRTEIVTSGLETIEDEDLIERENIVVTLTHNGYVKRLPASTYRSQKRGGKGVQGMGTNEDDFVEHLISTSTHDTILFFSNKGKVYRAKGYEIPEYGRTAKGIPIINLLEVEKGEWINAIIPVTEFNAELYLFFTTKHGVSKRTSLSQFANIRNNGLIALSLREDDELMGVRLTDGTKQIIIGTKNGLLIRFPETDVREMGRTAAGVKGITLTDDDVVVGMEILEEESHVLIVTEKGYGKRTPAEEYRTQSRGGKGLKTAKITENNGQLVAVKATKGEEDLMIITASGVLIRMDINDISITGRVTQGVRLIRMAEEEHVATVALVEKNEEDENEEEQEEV
Give the value in µM but do not write µM after it.

Give recorded IC50 with B. subtilis DNA gyrase (Bacillus subtilis, UniProt P05652) for the following compound: Cc1cccc(C(=O)NNC(=O)c2cc(-c3ccc(Br)cc3)n[nH]2)c1
8.14

Which IC50 is reported with B. subtilis DNA gyrase (Bacillus subtilis, UniProt P05652) for this entry: Cc1ccccc1C(=O)NNC(=O)c1cc(-c2ccc(Br)cc2)n[nH]1 ?
1.25

Item: Cc1ccc(C(=O)NNC(=O)c2cc(-c3ccc(Br)cc3)n[nH]2)cc1 Test system: B. subtilis DNA gyrase (Bacillus subtilis, UniProt P05652) Read-out: IC50 Value: ?
6.51

Provide the documented IC50 with B. subtilis DNA gyrase (Bacillus subtilis, UniProt P05652) as the system for COc1ccc(C(=O)NNC(=O)c2cc(-c3ccc(Br)cc3)n[nH]2)cc1
29.5

Identify the measured IC50 of O=C(NNC(=O)c1cc(-c2ccc(Br)cc2)n[nH]1)c1ccccc1 for B. subtilis DNA gyrase (Bacillus subtilis, UniProt P05652).
2.6

Requested read-out IC50, target or system B. subtilis DNA gyrase (Bacillus subtilis, UniProt P05652), entry COc1cccc(C(=O)NNC(=O)c2cc(-c3ccc(Br)cc3)n[nH]2)c1
0.602
